Could you please report measured pKi for the items listed next?
biological target: MMP-2 (Homo sapiens, UniProt P08253)
Sequence (P08253 110-660): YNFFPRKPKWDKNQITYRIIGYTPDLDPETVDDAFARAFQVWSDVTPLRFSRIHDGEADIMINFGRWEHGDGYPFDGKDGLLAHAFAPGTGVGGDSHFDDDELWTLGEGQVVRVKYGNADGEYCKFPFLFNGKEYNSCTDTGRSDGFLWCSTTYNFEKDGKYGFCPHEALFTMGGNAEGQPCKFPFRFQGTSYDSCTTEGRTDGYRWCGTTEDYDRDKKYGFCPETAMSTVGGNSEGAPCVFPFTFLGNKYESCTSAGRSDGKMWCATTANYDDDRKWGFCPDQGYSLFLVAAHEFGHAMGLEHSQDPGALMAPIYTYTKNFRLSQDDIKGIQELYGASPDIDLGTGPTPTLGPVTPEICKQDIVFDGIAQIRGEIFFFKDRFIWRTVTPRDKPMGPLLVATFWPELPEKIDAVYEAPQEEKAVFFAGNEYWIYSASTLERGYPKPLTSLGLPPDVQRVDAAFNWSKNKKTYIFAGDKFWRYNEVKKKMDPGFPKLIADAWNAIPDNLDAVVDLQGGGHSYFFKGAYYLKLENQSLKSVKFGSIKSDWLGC
Answers are plain numbers, as −log10 of the molar value.

Solved cases below.
CCOC(=O)CN(C)C(=O)c1cccc(CCC(CC(=O)c2ccc(-c3ccc(Cl)cc3)cc2)C(=O)O)c1 (centres unmarked) [XVI] :: 8.01
O=C(CC(CCc1ccc(C(=O)NCCc2ccccc2)cc1)C(=O)O)c1ccc(-c2ccc(Cl)cc2)cc1 (centres unmarked) [Compound XX] :: 6.35
O=C(CC(CCc1ccccc1C(=O)N1CCCCC1)C(=O)O)c1ccc(-c2ccc(Cl)cc2)cc1 (centres unmarked) [V] :: 7.86
O=C(O)CNC(=O)c1ccc(CCC(CC(=O)c2ccc(-c3ccc(Cl)cc3)cc2)C(=O)O)cc1 (centres unmarked) [Compound XXIV] :: 7.08

Hey, quick one: what's pKi for each of these?
1. O=C(O)CCNC(=O)c1ccccc1CCC(CC(=O)c1ccc(-c2ccc(Cl)cc2)cc1)C(=O)O (centres unmarked) [Compound XXII]
2. O=C(CC(CCc1cccc(C(=O)N2CCOCC2)c1)C(=O)O)c1ccc(-c2ccc(Cl)cc2)cc1 (centres unmarked) [Compound X]
3. O=C(CC(CCc1ccccc1C(=O)NCCc1ccccc1)C(=O)O)c1ccc(-c2ccc(Cl)cc2)cc1 (centres unmarked) [Compound I]
4. CC(C)CCNC(=O)c1ccc(CCC(CC(=O)c2ccc(-c3ccc(Cl)cc3)cc2)C(=O)O)cc1 (centres unmarked) [XVIII]

### Response
[7.20, 7.58, 7.39, 6.86]

Hey, quick one: what's pKi for each of these?
1. CC(C)CCNC(=O)c1cccc(CCC(CC(=O)c2ccc(-c3ccc(Cl)cc3)cc2)C(=O)O)c1 (centres unmarked) [XIV]
2. O=C(CC(CCc1cccc(C(=O)NCc2ccccc2)c1)C(=O)O)c1ccc(-c2ccc(Cl)cc2)cc1 (centres unmarked) [XV]
3. CCCCCOc1ccc(-c2ccc(C(=O)CC(CCc3cccc(C(=O)N4CCCCC4)c3)C(=O)O)cc2)cc1 (centres unmarked) [Compound XXXI]
4. O=C(CC(CCc1cccc(C(=O)NCCCc2ccccc2)c1)C(=O)O)c1ccc(-c2ccc(Cl)cc2)cc1 (centres unmarked) [XIII]
5. O=C(CC(CCc1ccccc1C(=O)NCCCc1ccccc1)C(=O)O)c1ccc(-c2ccc(Cl)cc2)cc1 (centres unmarked) [IV]
6. CC(C)CCNC(=O)c1ccccc1CCC(CC(=O)c1ccc(-c2ccc(Cl)cc2)cc1)C(=O)O (centres unmarked) [VI]

### Response
[6.96, 6.98, 7.77, 6.80, 7.16, 7.24]
